tested on: OVCAR-8 ovarian; assay: NCI tumour cell line growth inhibition, 48 h
Reported values of TGI for individual entries

Answered cases to consult:
molecule: c1ccc(Cn2cc3c(c2-c2ccccc2)CCc2cnoc2-3)cc1
TGI: > 100 µM

molecule: CC1=NN(c2nc(N)nc(CCl)n2)CC1
TGI: 48.6 µM

molecule: CC1C(=O)OC2CC[N+]3(CC(=O)c4ccc(Br)cc4)CC=C(COC(=O)C(C)(O)C1(C)O)C23 (centres undefined)
TGI: > 17.4 µM

[in] State its TGI on OVCAR-8 ovarian: O=C(Nc1cc(C(=O)Nc2cccc(S(=O)(=O)O)c2)cc(C(=O)Nc2cccc(S(=O)(=O)O)c2)c1)c1cccc(C(=O)Nc2cc(C(=O)Nc3cccc(S(=O)(=O)O)c3)cc(C(=O)Nc3cccc(S(=O)(=O)O)c3)c2)c1
[out] > 100 µM
